- Measurement protocol: soluble on expression in E. coli; label from the status in PepcDB or PDB records
Measurement type: soluble on expression in E. coli

# annotated cases, reported soluble on expression in E. coli shown
MSLVIVMYSIKMRASKNGKHISGAERIVNKDEIEETVKELVRRALTHENGTPDFINIKIEEIKEEITYINHLPIKTIHCKDKEEARETAKKILRNEGIPDSVIDYAYEIIDKGGMRGAAILNLKGERLEPDKERGVRVKNIDTTKELKEKILKENLGTERTVDAIAIASKVIHLGVIAELCTSDNKSYTTGYVATKKGYFRITNLKKEGESGGRVFFVKDDVDIEDLINKLENKPEGHHHHHH | soluble
MSLRTTDDLPNALPPALESMTLLVAAVIVHDQATNRVVLLQRSENAKFAQGMWDLPVGKSEPGEPITETAVRELHEETGLTVKPEALMVAHIIHGSWGVEAPNGFLTVVFATHEWTGEPENREPRKHSQVRWVDADAIPEECVDTTASALHHYLSGGAQVSLDGWLPKEGHHHHHH | soluble
MGSDKIHHHHHHYYYARGTYTHYNLDFDQDVTHLLDLGMKQISLEPVVAQPSDPYAFQEGDLPEILKTYDRLGEELLARRRKGEDFSFFHFNVALDQGPCLPKRLSGCGAGHEYVAISPEGDLYPCHQFVGQEEFKMGSLGQEGVPLNPEIIAKFRSAHVYSKAACRQCWARFSCSGGCHSANHAFSGQLNEVYALGCEFQKKRLEVALYMKIKEA | not soluble
MVDTISVLNPIHLDLSVDPQDNVRISARSTTSSSASTSSDSELMSPRAEELLRMQAELRATRTALAEKDKKMTQIQVTVDAEVQELTEKLFQEAYKMVNTAEARREKAGKLLTESRLEVEVLQAEVRALKELISAPGMGQNHFKQTTSPEHKSTLSKLFNGSSSSSKKQKDAANVSDKKKASSLPSTSTYTLTPSEDREQKEANAVEEIDPILFSEFEFWREAGHPTTSHPFIDRVTVEEVEPCMLFENSELSEEIMKAIRENRVQLEPLNELKPSVRICALTNASRFCPYRVRTGDEEQEWHYVSLIARNRVSYSTFLGLGTIDNFN | not soluble
KRLILLDYDGTLVPFQKRPEDASPTPQLLDTLQKLTADPLNHVVINSGRDHFTLEKWLGALPISFAAEHGAFYKENGVWHKNVHAQEWSPGLLSILKLFVSKTPRSHLEVKETALAWHYRETDAWLGRLRAQQLVNSLISICLKQNLQIMQGNKVIEIKSPEFTKGSEVNRLLLATRYDFILAMGDDTTDDDMFKALPVTAVTVKIGTASESARYNLPVQTDTLPFLQRLTDKSVVKAALKSGLKGQLSSAIDFLKRIINH | not soluble

Data request: For "GEPDAQNWQHTVGKDVVAGLTQREIDRQEVINELFVTEASHLRTLRVLDLIFYQRMKKENLMPREELARLFPNLPELIEIHNSWCEAMKKLREEGPIIKEISDLMLARFDGPAREELQQVAAQFCSYQSIALELIKTKQRKESRFQLFMQEAESHPQCRRLQLRDLIISEMQRLTKYPLLLESIIKHTEGGTSEHEKLCRARDQCREILKYVNEAVKQTENRHRLEGYQKRLDATALERASNPLAAEFKSLDLTTRKMIHEGPLTWRISKDKTLDLHVLLLEDLLVLLQKQDEKLLLKCHSKTAVGSSDSKQTFSPVLKLNAVLIRSVATDKRAFFIICTSKLGPPQIYELVALTSSDKNTWMELLEEAVRNATRHPHHHHHH" , what is its reported soluble on expression in E. coli?
Data returned: soluble

Data request: Then "MAHHHHHHMAHGAAQCTLAAPGCVYLTPEQEEQLVDRLYTQSLLQKEATLAELDARYYPVTASQTISQETLQKSVQRQVDVEMERRQQRRKEMDAMAVAKAMGHASGSRAAASKKTVTAEETDVSVRRLYDDALAQKKARKAESERLYAFHPEDLKSAKMSKAALQESVNRMSKPKKTEFAVAEVNKIYGL" ?
Data returned: soluble

Data request: Then "MSLNNDDSPALTLDEYKQAQAIVILGGGSYQTKELYAETASGAPQLERLRYAAFLQKETGLPILTTGYSLIGISEGDLMAKELNQFFNVPTQWIENKARNTEENASFTKNILIKDHIQKIILVTNQWHMKRAKYLFEKQGFDVLPAAAASYGSKGNLSAKSFIPDLGALNSNMVLLKEWIGYWKAHYVEEGHHHHHH" ?
Data returned: not soluble

Data request: Then "MNLIDYKARERGIEVEMPDERGTSSSCSVCGHEDEDSRVERGLWKCDCCGIVAHGDVNGADNIRQKTLPVTPPLGGSGNGCLAQPCVIQFSRTRGFQPRAPAELEHHHHHH" ?
Data returned: soluble

Data request: Then "MTQVPPSASPADLLAVLERIATALERQGAPAVPANSLDGADAFVWHAAESWLEPVCRVNRVDIALLQGIERQRQTLYDNTLRFAHGLPANNALLWGARGTGKSSLVKAVHASVNQALTAKGAAPVALVEIHREDIPTLPRLLRILAASGRPCLLFCDDLSFDGNDSSYKSLKAVLEGGIEGRPDTVIFYATSNRRHLLAREMVENEQSTALHAGEAVEEKVSLSDRFGLWLGFHNVDQPTYFDIVDGYARAYGLDIETEDLHREAREWSMARGSRSGRTAWQFIQDLAGRLGKTLELEHHHHHH" ?
Data returned: soluble

Data request: Then "MPPKQQGPSKKSEQKRKEKVIEDKTFGLKNKKGNKNQKFVAQVENQVRNNNTRMDLVRQQEAAKKKEKDELLDIANLLKPVEQKVAKDVDPKSLLCVFFKQGLCGKGAKCKFSHDLAVAQKTAKKNLYADSREVEKDEETNENWDSDKLNEVVNKKNKNKHMIDIVSSFMTDIFKFKKLNFKVCKYFLEAVENNKYGWFWECPNGGEKCQYRHCLPEGYVLKKERKAMEQQKEDEISIEELVEKERAALSSKNLTKLTLQTFIAWKKKKLRERKEKEEADLKEKKEKIKSGKHNGMSGRDLFLYDANLVNNDDDEAGDIEMEKEEVDENEKVFEIDANFFKFDGMDDELTDQMSKSSTAVESTAKGMAKMDINEDLFDIDEDVENLDSDED" ?
Data returned: soluble

Data request: Then "MLSNDILRSVRYILKANNNDLVRILALGNVEATAEQIAVWLRKEDEEGFQRCPDIVLSSFLNGLIYEKRGKDESAPALEPERRINNNIVLKKLRIAFSLKTDDILAILTEQQFRVSMPEITAMMRAPDHKNFRECGDQFLRYFLRGLAARQHVKKG" ?
Data returned: soluble
